Origin of measurements: patent US20230089368A1

Assignment: determine reported Emax for the given molecules.
# Tested on: muscle progenitors (hMP) from DMD hiPSC or WT hiPSC
# method: Myotube assay: myogenic activity (total myotube area per well)
# Assay type: cell-based, human
# particulars: Homo sapiens, 72 h; myotube assay, compounds incubated 3 days; read-out: MA (normalized Myotube Area, efficacy)

Value lookup for Emax; key = `CSc1cc(Oc2ccnc3c2CCC(=O)N3)ccc1NC(=O)Nc1cc(C(C)(C)C)nn1-c1ccccc1`
≥ 75%

Also, `CC(C)(C)c1cc(NC(=O)Nc2ccc(C(=O)c3ccncc3)cc2)n(-c2ccccc2)n1` please.
25 to 50%

`CSc1cc(Oc2ccnc(NC(=O)OC(C)(C)C)c2)ccc1NC(=O)Nc1cc(C(C)(C)C)nn1-c1ccccc1` , same question.
≥ 75%

And what about the molecule `CC(C)(C)c1cc(NC(=O)Nc2ccc(Oc3ccnc4[nH]c(=O)cnc34)cc2F)n(-c2cccnc2)n1` ?
50 to 75%

Here is the next molecule: `CC(C)(C)c1cc(NC(=O)Nc2cccc(Oc3ccnc4[nH]c(=O)cnc34)c2F)n(-c2ccccc2)n1`
≥ 75%

Try `CSc1cc(Oc2ccnc3[nH]c(=O)cnc23)ccc1NC(=O)Nc1cc(C(C)(C)C)nn1-c1ccc(C)nc1` next.
≥ 75%

Similarly, `CSc1cc(Oc2ccnc3[nH]c(=O)cnc23)ccc1NC(=O)Nc1cc(C(C)(C)C)nn1-c1ccc(CN(C)C)cc1` ?
≥ 75%

# repeat for `CNC(=O)c1ccc(Oc2ccc(NC(=O)Nc3cc(C(C)(C)C)nn3-c3ccccc3)c(SC)c2)cn1`
25 to 50%

Follow-up item: `CSc1cc(Oc2ccnc3c2OCCN3)ccc1NC(=O)Nc1cc(C(C)(C)C)nn1-c1ccccc1`
≥ 75%

Repeat with `COc1cccc(-n2nc(C(C)(C)C)cc2NC(=O)Nc2ccc(Oc3ccnc4[nH]c(=O)cnc34)cc2SC)c1`
≥ 75%

`CSc1cc(Oc2ccnc3c2CCC(=O)N3)ccc1NC(=O)Nc1ncc(C(C)(C)C)s1` ?
≥ 75%

Moving on to the next molecule: `CSc1cc(Oc2ccnc3[nH]c(=O)cnc23)ccc1NC(=O)Nc1cc(C(C)(C)C)nn1-c1ccc(C)c(C)c1`
≥ 75%

Input `CC(C)(C)c1cnc(NC(=O)Nc2ccc(Oc3ccnc4c3CCC(=O)N4)c3ccccc23)s1`
≥ 75%

Check `CSc1cc(Oc2ccnc3c2CCC(=O)N3)ccc1NC(=O)Nc1cc(C(C)(C)C)no1` too.
≥ 75%

Can you check `CSc1cc(Oc2ccnc3[nH]c(=O)cnc23)ccc1NC(=O)Nc1cc(C(C)(C)C)nn1-c1cccc(F)c1` next?
≥ 75%

Same again, this time with `CC(C)c1cc(NC(=O)Nc2ccc(Oc3ccnc4[nH]c(=O)cnc34)cc2F)n(-c2ccccc2)n1`
25 to 50%

* * *

# System: satellite-like cells (Pax7-positive cells) in hMP
# method: Myotube assay: Pax7-positive (satellite-like) cell quantification
# Assay type: cell-based, human
# Set-up: key: −: Depletes the pool of cells, while positively affects the myotubes; +: Maintains or increases the pool of cells, with at least 1 of the highest concentration known to be cytotoxic; ++: Maintains or increases the pool of cells, without any toxicity
# particulars: myotube assay, compounds incubated 3 days
Where a name gives a salt, the structure may show the parent alone.
readout.name: Pax7% (pool of Pax7-positive cells)

Please review the following examples before continuing.
CSc1cc(Oc2ccnc3[nH]c(=O)cnc23)ccc1NC(=O)Nc1cc(C(C)(C)C)nn1CCN(C)C	++
CC(C)(C)c1cc(NC(=O)Nc2ccc(Oc3ccnc4[nH]c(=O)cnc34)c(F)c2F)n(-c2ccccc2)n1	+
CC(C)(C)c1cc(NC(=O)Nc2ccc(Oc3ccnc4[nH]c(=O)cnc34)cc2)n(-c2ccccc2)n1 [(s)]	+
CC(C)(C)c1cc(NC(=O)Nc2ccc(Oc3ccnc4[nH]c(=O)cnc34)cc2F)n(-c2cccnc2)n1	+
CSc1cc(Oc2ccnc3[nH]c(=O)cnc23)ccc1NC(=O)Nc1cc(C(C)(C)C)nn1CCCN1CCOCC1	++

GET /values?readout=Pax7% (pool of Pax7-positive cells)&item= CSc1cc(Oc2ccnc(NCCN(C)C)c2)ccc1NC(=O)Nc1cc(C(C)(C)C)nn1-c1ccccc1 [(ck), Hydrochloride]
+

Would you kindly repeat that for `CC(C)(C)c1cc(NC(=O)Nc2ccc(Oc3ccnc4c3CCC(=O)N4)c3ccccc23)on1` ?
+

Same read-out for `CC(C)Cc1cc(NC(=O)Nc2ccc(Oc3ccnc4[nH]c(=O)cnc34)cc2F)n(-c2ccccc2)n1` ?
+

Ok, now `CC(C)(C)c1cc(NC(=O)Nc2ccc(Oc3ccnc4[nH]c(=O)cnc34)cc2F)sn1`
++

Input `Cc1ccc(-n2nc(C(C)(C)C)cc2NC(=O)Nc2ccc(Oc3ccnc4[nH]c(=O)cnc34)cc2C(F)(F)F)cc1`
++

Query `CSc1cc(Oc2ccnc3[nH]c(=O)cnc23)ccc1NC(=O)Nc1cc(C(C)(C)C)nn1-c1cccc(Cl)c1` next
+

And `CSc1cc(Oc2ccnc3[nH]c(=O)cnc23)ccc1NC(=O)Nc1cc(C(C)(C)C)nn1-c1ccc(C#N)cc1` ?
+

* * *

# Test system: muscle progenitors (hMP) from DMD hiPSC or WT hiPSC
# method: Myotube assay: myogenic activity (total myotube area per well)
# Type: cell-based, human
# particulars: comparative compounds, same assay; NA: non active; read-out: EC50
readout.name: EC50

Look up EC50: `CC(C)(C)c1cc(NC(=O)Nc2ccc(Oc3ccnc4[nH]c(=O)cnc34)cc2F)n(-c2ccccc2)n1`
0.5 to 1 µM

* * *

# Test system: muscle progenitors (hMP) from DMD hiPSC or WT hiPSC
# method: Myotube assay: myogenic activity (total myotube area per well)
# Type: cell-based, human
# particulars: Homo sapiens, 72 h; myotube assay, compounds incubated 3 days; read-out: MA (normalized Myotube Area, efficacy)
Exercise: state measured Emax for each of the compounds provided.

Bench note: what Emax did `COc1ccc(-n2nc(C(C)(C)C)cc2NC(=O)Nc2ccc(Oc3ccnc4[nH]c(=O)cnc34)cc2SC)cc1` show?
≥ 75%

Ok, now O=C(Nc1ccc(Oc2ccnc3[nH]c(=O)cnc23)cc1F)Nc1cc(C2CC2)nn1-c1ccccc1 [(e)]
25 to 50%

And then `CSc1cc(Oc2ccnc3[nH]c(=O)cnc23)ccc1NC(=O)Nc1cc(C(C)(C)C)nn1-c1ccc(C#N)cc1` , what is it?
≥ 75%

And `CSc1cc(Oc2ccnc(NC(=O)CO)c2)ccc1NC(=O)Nc1cc(C(C)(C)C)nn1-c1ccccc1` ?
≥ 75%

What do you have for `CSc1cc(Oc2ccnc(C(=O)Nc3ccccc3)c2)ccc1NC(=O)Nc1cc(C(C)(C)C)nn1-c1ccccc1` ?
25 to 50%

Next: `CSc1cc(Oc2ccnc3[nH]c(=O)cnc23)ccc1NC(=O)Nc1cc(C(C)(C)C)nn1-c1ccccn1`
≥ 75%

And for `CC(C)Cc1cc(NC(=O)Nc2ccc(Oc3ccnc4[nH]c(=O)cnc34)cc2F)n(-c2ccccc2)n1` ?
≥ 75%

Repeat for the following compound: `CC(=O)n1nc(C(C)(C)C)cc1NC(=O)Nc1ccc(Oc2ccnc3[nH]c(=O)cnc23)cc1F`
25 to 50%

* * *

# Tested on: muscle progenitors (hMP) from DMD hiPSC or WT hiPSC
# method: Myotube assay: myogenic activity (total myotube area per well)
# Assay type: cell-based, human
# particulars: Homo sapiens, 72 h; myotube assay, compounds incubated 3 days; read-out: MA (normalized Myotube Area, efficacy)
readout.name: Emax

Could you tell me which Emax is on file for CC(C)(C)c1nc(NC(=O)Nc2ccc(Oc3ccnc4[nH]c(=O)cnc34)cc2F)n(-c2ccccc2)n1 [(p)] ?
25 to 50%

Next molecule up: CC(C)(C)c1cc(NC(=O)Nc2cc(Oc3ccnc4[nH]c(=O)cnc34)ccc2F)n(-c2ccccc2)n1 [(cq)]
≥ 75%

What do you get for CCSc1cc(Oc2ccnc3[nH]c(=O)cnc23)ccc1NC(=O)Nc1cc(C(C)(C)C)nn1-c1ccccc1 [(am)] ?
≥ 75%

Could you do the same for CSc1cc(Oc2ccnc3[nH]c(=O)cnc23)ccc1NC(=O)Nc1cc(C(C)(C)C)nn1-c1ccc(OCCN2CCCCC2)cc1 [(ce)] , please?
≥ 75%

What do you get for CC(C)(C)c1cc(NC(=O)Nc2ccc(Oc3ccncc3)cc2F)n(-c2ccccc2)n1 [(ad)] ?
25 to 50%

Field entry: COc1cc(Oc2ccnc3[nH]c(=O)cnc23)ccc1NC(=O)Nc1cc(C(C)(C)C)nn1-c1ccccc1 [(bc)]
≥ 75%

# iterate: CC(C)(C)c1cc(NC(=O)Nc2ccc(Oc3ccnc4[nH]c(=O)cnc34)cc2F)n(-c2ncccn2)n1 [(m)]
50 to 75%

Okay, and CSc1cc(Oc2ccnc3[nH]c(=O)cnc23)ccc1NC(=O)Nc1nc(C(C)(C)C)cs1 [(ca)] ?
≥ 75%

# iterate: CSc1cc(Oc2ccnc3[nH]c(=O)cnc23)ccc1NC(=O)Nc1nnc(C(C)(C)C)s1 [(z)]
≥ 75%

# iterate: CC(C)c1cc(Oc2ccnc3[nH]c(=O)cnc23)ccc1NC(=O)Nc1cc(C(C)(C)C)nn1-c1ccccc1 [(bk)]
≥ 75%

Note, next up: CC(C)(C)c1cc(NC(=O)Nc2cc(F)c(Oc3ccnc4[nH]c(=O)cnc34)cc2F)n(-c2ccccc2)n1 [(bt)]
≥ 75%

Could you do the same for CSc1cc(Oc2ccnc3[nH]c(=O)cnc23)ccc1NC(=O)Nc1nc(-c2ccc(F)c(F)c2)cs1 [(ax)] , please?
50 to 75%

Let us now turn to CCOC(=O)Nc1cc(Oc2ccc(NC(=O)Nc3cc(C(C)(C)C)no3)c(SC)c2)ccn1 [(de)]
≥ 75%

And CSc1cc(Oc2ccnc(NC(=O)OCc3ccccc3)c2)ccc1NC(=O)Nc1cc(C(C)(C)C)nn1-c1ccccc1 [(cx)] ?
≥ 75%

Thanks! And CSc1cc(Oc2ccnc3nccnc23)ccc1NC(=O)Nc1cc(C(C)(C)C)nn1-c1ccccc1 [(bs)] ?
≥ 75%

Okay, and CCOC(=O)Nc1cc(Oc2ccc(NC(=O)Nc3cc(C(C)(C)C)nn3-c3ccccc3)c(SC)c2)ccn1 [(cv)] ?
≥ 75%
